# target-or-system: Imidazoleglycerol-phosphate dehydratase (Cryptococcus neoformans var. neoformans B-3501A, UniProt P0CO23)
# Sequence (P0CO23 whole entry, looked up): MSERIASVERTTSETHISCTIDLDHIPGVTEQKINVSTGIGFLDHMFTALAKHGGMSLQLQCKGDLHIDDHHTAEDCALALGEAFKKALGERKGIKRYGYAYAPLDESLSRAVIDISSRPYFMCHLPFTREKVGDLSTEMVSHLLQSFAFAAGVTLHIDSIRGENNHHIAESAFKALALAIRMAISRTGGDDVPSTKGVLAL
Item-by-item account of IC50

| compound | IC50 [µM] |
| --- | --- |
| O=C(NC(Cn1cncn1)CP(=O)(O)O)c1c(F)cccc1F (centres undefined) | 4.6 |
| CC(Oc1ccccc1)C(=O)NC(Cn1cncn1)CP(=O)(O)O (centres undefined) | 1.5 |
| O=C(NC(Cn1cncn1)CP(=O)(O)O)C1CC1 (centres undefined) | 17 |
| COCC(=O)NC(Cn1cncn1)CP(=O)(O)O (centres undefined) | 10 |

---

Item-by-item account of log10 Kis
# target-or-system: Imidazoleglycerol-phosphate dehydratase (Cryptococcus neoformans var. neoformans B-3501A)
# procedure-summary: Kinetic constant for the inhibition of imidazole glycerol phosphate dehydratase (IGPD)
measured-parameter: log10 Kis (log10 of the value in µM)

| compound | result-number |
| --- | --- |
| CCC(=O)NC(Cn1cncn1)CP(=O)(O)O (centres undefined) | 0.95 |
| O=C(CSc1ccccc1)NC(Cn1cncn1)CP(=O)(O)O (centres undefined) | 0.10 |
| O=C(NC(Cn1cncn1)CP(=O)(O)O)c1ccccc1O (centres undefined) | 1.34 |
| O=C(NC(Cn1cncn1)CP(=O)(O)O)c1c(F)cccc1F (centres undefined) | 0.76 |
| CCCCc1ccc(C(=O)NC(Cn2cncn2)CP(=O)(O)O)cc1 (centres undefined) | 0.77 |
| O=C(Cc1cccs1)NC(Cn1cncn1)CP(=O)(O)O (centres undefined) | 0.38 |
| CC(Oc1ccccc1)C(=O)NC(Cn1cncn1)CP(=O)(O)O (centres undefined) | 0.09 |
| CC(C)=CC(=O)NC(Cn1cncn1)CP(=O)(O)O (centres undefined) | 0.74 |
| COC(=O)CCCC(=O)NC(Cn1cncn1)CP(=O)(O)O (centres undefined) | 0.60 |
| O=C(COc1ccccc1)NC(Cn1cncn1)CP(=O)(O)O (centres undefined) | -0.57 |
| O=C(NC(Cn1cncn1)CP(=O)(O)O)c1ccccc1 (centres undefined) | 2.00 |
| CCCCCC(=O)NC(Cn1cncn1)CP(=O)(O)O (centres undefined) | 0.09 |
| O=C(/C=C/c1ccccc1)NC(Cn1cncn1)CP(=O)(O)O (centres undefined) | 1.40 |
| C/C=C/C(=O)NC(Cn1cncn1)CP(=O)(O)O (centres undefined) | 0.75 |
| CC(=O)NC(Cn1cncn1)CP(=O)(O)O (centres undefined) | 0.79 |
| O=C(Cc1ccccc1)NC(Cn1cncn1)CP(=O)(O)O (centres undefined) | 0.59 |
| CC(C)(C)CC(=O)NC(Cn1cncn1)CP(=O)(O)O (centres undefined) | 0.70 |
| COCC(=O)NC(Cn1cncn1)CP(=O)(O)O (centres undefined) | 1.23 |
| O=C(CCC1CCCC1)NC(Cn1cncn1)CP(=O)(O)O (centres undefined) | 0.57 |
| O=C(CO)NC(Cn1cncn1)CP(=O)(O)O (centres undefined) | 0.09 |
| O=C(NC(Cn1cncn1)CP(=O)(O)O)C1CC1 (centres undefined) | 1.28 |
| O=C(COc1ccc(Cl)cc1)NC(Cn1cncn1)CP(=O)(O)O (centres undefined) | 0.33 |
| O=C(NC(Cn1cncn1)CP(=O)(O)O)c1ccco1 (centres undefined) | 1.52 |
| O=C(CCc1ccccc1)NC(Cn1cncn1)CP(=O)(O)O (centres undefined) | 0.06 |
